Numbers sourced from PubChem BioAssay AID1159580.

assay: chemical genetic growth profiling, strain panel (AID 1159580);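 note: tested at 20 µM; growth read once vehicle control cultures reached saturation at 30 °C; lower values mean less growth of the strain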; details: S. cerevisiae deletion strains, growth OD, locus YNL224C, strain SQS1
Out of some 5,500 compounds screened, about 2,000 (36%) were called active. Inconclusive results (about 18%) are left out. Cut-off read from the data, not from the text of the source: active = normalized growth mostly below about 0.91 (no sharp cut-off); inconclusive = no clear call, values can overlap the other calls; inactive = mostly above about 0.92. The list shows a part of the results.
Possible outcomes: active, inactive

MOLECULE	LABEL CLASS
NC(=O)CN1CCCC1=O	inactive
FC(F)(F)c1cc(CO[C@H]2CCCN[C@H]2c2ccccc2)cc(C(F)(F)F)c1	inactive
NC[C@@H]1O[C@H](C23CC4CC(CC(C4)C2)C3)Cc2c1ccc(O)c2O	inactive
Oc1ccc(-c2nc(-c3ccc(F)cc3)c(-c3ccncc3)[nH]2)cc1	inactive
CCCCCCCCCCCCCCCCCC(=O)OC(CC(=O)O)C[N+](C)(C)C (stereo not given)	active
COc1cc(=O)n(C)c2c(OCC(O)C(C)(C)O)cccc12 (stereo not given)	inactive
CN1CC(C(=O)NC2(C)OC3(O)C4CCCN4C(=O)C(Cc4ccccc4)N3C2=O)CC2c3cccc4[nH]cc(c34)CC21 (stereo not given)	inactive
NC(=O)OCC(COC(N)=O)c1ccccc1	inactive
CC1=NN=C(c2ccc(N)cc2)c2cc3c(cc2C1)OCO3	inactive
CSc1nc(N)c2ncn([C@@H]3O[C@H](COP(=O)(O)OP(=O)(O)OP(=O)(O)O)[C@H](O)C3O)c2n1 (stereo not given in full)	inactive
C[C@]12CC[C@@H]3c4ccc(O)cc4CC[C@H]3[C@@H]1CC[C@@H]2O	inactive
CC(C)(C)c1cc(/C=C(\C#N)C(N)=S)cc(C(C)(C)C)c1O	inactive
CCCCCCCCCCCCCCCC(=O)OC(CC(=O)O)C[N+](C)(C)C (stereo not given)	active
S=C(NC1CCCCC1)N1CCC(c2cnc[nH]2)CC1	inactive
C1COC(NC(C2CC2)C2CC2)=N1	inactive
CC(C)C[C@H](N)CSSC[C@@H](N)CC(C)C	inactive
CCC1(O)CC2CN(CCc3c([nH]c4ccccc34)[C@@](C(=O)OC)(c3cc4c(cc3OC)N(C=O)C3[C@]45CCN4CC=C[C@@](CC)([C@@H](OC(C)=O)[C@]3(O)C(=O)OC)[C@H]45)C2)C1 (stereo not given in full)	inactive
N[C@H](C(=O)O)c1cc(O)cc(O)c1	inactive
CC(C)[C@@]1(NC(=O)[C@@H]2C[C@@H]3c4cccc5[nH]cc(c45)C[C@H]3N(C)C2)O[C@@]2(O)[C@@H]3CCCN3C(=O)[C@H](Cc3ccccc3)N2C1=O	inactive
NC(=S)NCCCC(N)C(=O)O (stereo not given)	inactive
